system: 5-hydroxytryptamine receptor 1A (Homo sapiens, UniProt P08908)
Sequence (P08908 whole entry): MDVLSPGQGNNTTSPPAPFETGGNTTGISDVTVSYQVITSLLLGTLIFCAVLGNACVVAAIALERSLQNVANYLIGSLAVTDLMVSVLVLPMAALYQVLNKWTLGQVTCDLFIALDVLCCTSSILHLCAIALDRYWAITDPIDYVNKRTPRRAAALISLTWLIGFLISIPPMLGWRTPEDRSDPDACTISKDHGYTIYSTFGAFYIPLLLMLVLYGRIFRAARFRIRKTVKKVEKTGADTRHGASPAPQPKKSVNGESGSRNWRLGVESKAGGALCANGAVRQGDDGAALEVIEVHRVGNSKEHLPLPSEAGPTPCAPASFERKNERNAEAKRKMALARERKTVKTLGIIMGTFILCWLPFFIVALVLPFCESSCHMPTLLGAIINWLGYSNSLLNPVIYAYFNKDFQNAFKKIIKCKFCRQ
parameter: pIC50
Just the number, please; pIC50 means minus log10 of the concentration in mol/L.

Task: Query: pIC50; subject: CN(C)CC1CC2c3ccccc3Cc3ccc(F)cc3N2O1 (stereo unspecified)
Output: 5.80

###

system: D(2) dopamine receptor (Homo sapiens)
Sequence (P14416 whole entry): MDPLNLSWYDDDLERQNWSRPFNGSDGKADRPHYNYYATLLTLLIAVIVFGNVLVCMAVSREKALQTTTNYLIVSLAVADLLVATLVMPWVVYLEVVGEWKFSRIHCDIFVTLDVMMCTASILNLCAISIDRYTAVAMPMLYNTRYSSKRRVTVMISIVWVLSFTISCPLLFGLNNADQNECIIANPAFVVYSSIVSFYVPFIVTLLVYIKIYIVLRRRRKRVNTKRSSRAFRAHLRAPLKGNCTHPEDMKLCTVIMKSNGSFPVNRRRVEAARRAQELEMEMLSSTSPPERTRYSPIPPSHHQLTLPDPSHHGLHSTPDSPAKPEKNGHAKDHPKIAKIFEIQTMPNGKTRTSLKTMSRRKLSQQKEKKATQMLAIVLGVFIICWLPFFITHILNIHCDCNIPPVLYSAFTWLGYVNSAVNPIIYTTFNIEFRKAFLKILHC
experiment: ChEBML_61646
Please provide measured IC50 for the entries that follow.
# value in nM; strip the unit string

Task: Short answer please: IC50, D(2) dopamine receptor (Homo sapiens), entry Cc1ccc2c(c1)N1OC(CN(C)C)CC1c1ccccc1C2 (configuration not stated)
Output: 55

Task: Same again, this time with CN(C)CC1CC2c3ccccc3Cc3ccc(Cl)cc3N2O1 (configuration not stated)
Output: 8.7
